# target-under-test: T1, Human IL2Rγ extracellular domain expressed with a C-terminal myc-myc-hexahistidine tag (human)
# T1 construct: also called hIL-2Rg-MMH; hIL-2RG-MMH
# T1 chain: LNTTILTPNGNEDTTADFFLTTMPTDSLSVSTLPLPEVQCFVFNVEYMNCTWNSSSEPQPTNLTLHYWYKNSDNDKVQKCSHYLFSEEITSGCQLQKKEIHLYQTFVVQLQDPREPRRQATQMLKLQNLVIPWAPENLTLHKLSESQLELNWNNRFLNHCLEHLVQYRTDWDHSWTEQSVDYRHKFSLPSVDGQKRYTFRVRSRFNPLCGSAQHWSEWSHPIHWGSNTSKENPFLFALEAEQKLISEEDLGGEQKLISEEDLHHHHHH
# protocol: SPR, captured mAb, 25C, dissociation pH 6.0
attribute-measured: koff (s⁻¹)
Field format: number, assumed s⁻¹, no unit text.

The binder listed as H4H12863P (antibody, human IgG4 S228P, kappa, V domains shown, anti-IL2Rgamma mAb expressed with human IgG4 Fc) VH: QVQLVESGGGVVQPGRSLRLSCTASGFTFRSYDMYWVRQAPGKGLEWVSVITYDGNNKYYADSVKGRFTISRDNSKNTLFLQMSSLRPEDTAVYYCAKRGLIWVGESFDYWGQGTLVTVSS VL: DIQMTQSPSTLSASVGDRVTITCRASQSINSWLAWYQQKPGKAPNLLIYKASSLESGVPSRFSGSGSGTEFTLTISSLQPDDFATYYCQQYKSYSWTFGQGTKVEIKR shows koff equal to 0.000762

The binder listed as H4H12884P (antibody, human IgG4 S228P, kappa, V domains shown, anti-IL2Rgamma mAb expressed with human IgG4 Fc) VH: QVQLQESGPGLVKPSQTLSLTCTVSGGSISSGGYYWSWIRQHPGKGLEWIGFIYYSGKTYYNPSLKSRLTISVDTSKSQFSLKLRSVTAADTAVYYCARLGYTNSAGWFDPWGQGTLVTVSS VL: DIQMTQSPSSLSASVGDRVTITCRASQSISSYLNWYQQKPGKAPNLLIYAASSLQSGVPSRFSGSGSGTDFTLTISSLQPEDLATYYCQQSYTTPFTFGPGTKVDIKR shows koff equal to 0.00199

The binder listed as H4H12871P (antibody, human IgG4 S228P, kappa, V domains shown, anti-IL2Rgamma mAb expressed with human IgG4 Fc; also called REGN9434) VH: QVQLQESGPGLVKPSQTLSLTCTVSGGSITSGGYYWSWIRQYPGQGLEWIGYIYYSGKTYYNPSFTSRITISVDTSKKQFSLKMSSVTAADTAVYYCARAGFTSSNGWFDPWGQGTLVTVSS VL: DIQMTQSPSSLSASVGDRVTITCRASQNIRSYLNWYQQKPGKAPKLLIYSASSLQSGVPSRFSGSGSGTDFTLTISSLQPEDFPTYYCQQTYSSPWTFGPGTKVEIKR shows koff equal to 0.00136
